- Tested on: endogenous membrane PLA2
- Test Details: Inhibition of liberation of arachidonic acid from isolated rat polymorphonuclears stimulated by ionophore
- Format: cell-based
- Condition Set: Test on rat PMNs; ionophore stimulation
pIC50: −log10 of the molar value.
Readout: pIC50

[I] Cc1cc(Cl)cc2c1OCC(/C=C/C=C/C=C/C(=O)O)=C2 [Example 15]
[II] CC(C)c1ccc2c(c1)C=C(/C=C/C=C/C=C/C(=O)O)CO2 [Example 5]
Q. Returns: the argument ( I or II ) having the larger pIC50. Mark your selection by writing its label.
A. II
(II: 4.52, I: 4.30)

[I] O=C(O)/C=C/C=C/C=C/C1=Cc2cc(Cl)cc(Cl)c2OC1 [Example 20]
[II] Cc1cc2c(c(C(C)(C)C)c1)OCC(/C=C/C=C/C=C/C(=O)O)=C2 [Example 11]
[III] Cc1cc(Cl)cc2c1OC(C)(C)C(/C=C/C=C/C=C/C(=O)O)=C2 [Example 19]
[IV] CC(C)(C)c1ccc2c(c1)C=C(/C=C/C=C/C=C/C(=O)O)CO2 [Example 6]
Q. # desc sort on pIC50 across 4 compounds Answer format: the labels, in the requested order.
A. II, IV, I, III
(II: 5.30, IV: 5.00, I: 4.52, III: 4.30)

[P] CC(C)(C)c1cc2c(c(C(C)(C)C)c1)OCC(/C=C/C=C/C=C/C(=O)O)=C2 [Example 13]
[Q] Cc1cc(C)c2c(c1)C=C(/C=C/C=C/C=C/C(=O)O)C(C)(C)O2 [Example 18]
Q. Returns: the argument ( P or Q ) having the larger pIC50. Mark your selection by writing its label.
A. P

* * *

- Tested on: mouse calvaria
- Test Details: Anti-bone resorption-1: inhibition of hyper-resorption in mouse calvaria (in vitro)
- Type: cell-based
- Condition Set: 10 μM, hyper-resorption induced by 5×10^-8 M retinoic acid
Readout: inhibition at 10 µM (%)
The reply should contain only the number, in %.

In the examples that follow, each entry is paired with its recorded inhibition at 10 µM.
Chemical Structure	inhibition at 10 µM (%)
CCOC(=O)\C=C(C)/C=C/C=C(\C)C1=Cc2cc(-c3ccccc3)ccc2OC1	11
CCOC(=O)/C=C(C)/C=C/C=C(\C)C1=Cc2cc(C)cc(C)c2OC1	15
CCOC(=O)/C=C(C)/C=C/C=C(\C)C1=Cc2cc(C)ccc2OC1	14

Q. If you can, please state the reported inhibition at 10 µM value of CCOC(=O)/C=C(C)/C=C/C=C(\C)C1=Cc2cc(C(C)(C)C)ccc2OC1 .
A. 3

Q. If you can, please state the reported inhibition at 10 µM value of CC(/C=C/C=C(\C)C1=Cc2cc(-c3ccccc3)ccc2OC1)=C\C(=O)O .
A. 11

Ref: patent US5391569A
